# condition_summary: in acetone, 327.8 K
result_type: solubility (mole fraction)

chemical_structure	numeric_result
c1ccc(P(c2ccccc2)c2ccccc2)cc1	0.33

---

# condition_summary: in isopropanol, 328.4 K

chemical_structure	solubility (mole fraction)
c1ccc(P(c2ccccc2)c2ccccc2)cc1	0.033

---

# condition_summary: in ethanol, 318.6 K
result_type: solubility (mole fraction)

chemical_structure	result
c1ccc(P(c2ccccc2)c2ccccc2)cc1	0.022

---

# condition_summary: in toluene, 328.3 K

chemical_structure	solubility (mole fraction)
c1ccc(P(c2ccccc2)c2ccccc2)cc1	0.24

---

# condition_summary: in ethanol, 308.3 K
result_type: solubility (mole fraction)

chemical_structure	numeric_result
c1ccc(P(c2ccccc2)c2ccccc2)cc1	0.012

---

# condition_summary: in ethanol, 323.2 K

chemical_structure	solubility (mole fraction)
c1ccc(P(c2ccccc2)c2ccccc2)cc1	0.028

---

# condition_summary: in ethanol, 313.3 K

chemical_structure	solubility (mole fraction)
c1ccc(P(c2ccccc2)c2ccccc2)cc1	0.016

---

# condition_summary: in ethanol, 303.5 K

chemical_structure	solubility (mole fraction)
c1ccc(P(c2ccccc2)c2ccccc2)cc1	0.0095

---

# condition_summary: in toluene, 333.4 K
result_type: solubility (mole fraction)

chemical_structure	numeric_result
c1ccc(P(c2ccccc2)c2ccccc2)cc1	0.32

---

# condition_summary: in isopropanol, 313.3 K
result_type: solubility (mole fraction)

chemical_structure	numeric_result
c1ccc(P(c2ccccc2)c2ccccc2)cc1	0.014

---

# condition_summary: in benzene, 303.3 K
result_type: solubility (mole fraction)

chemical_structure	result_type	numeric_result
c1ccc(P(c2ccccc2)c2ccccc2)cc1	solubility (mole fraction)	0.069

---

# condition_summary: in ethanol, 327.9 K
result_type: solubility (mole fraction)

chemical_structure	result_type	numeric_result
c1ccc(P(c2ccccc2)c2ccccc2)cc1	solubility (mole fraction)	0.038

The reported numbers originate from BigSolDB 2.1.
